Recorded values, source paper PMC9482650.

Molecular target: SNX27, Q96L92
Assay: holdup assay
Design: key: below the threshold = too weak to quantify, mostly under pKd 3.1 to 4
Conditions: plain residues with an end cap or a label only (N-terminal biotin on a linker: ttds)
testReadout: pKd

Observe how each entry below is paired with its result.
binder: SRPQRTQTQV [HPV67-E6, A4U7F2]
result: 3.98
--
binder: RSLEEEESQL [GRASP, Q7Z6J2]
result: 5.69
--
binder: SVWLRKETRV [CYSLTR2, Q9NS75]
result: 4.95
--
binder: IYVPEAQTRL [DLGAP4, Q9Y2H0]
result: 5.41
--
binder: IDNDTESTAL [ARHGAP17, Q68EM7]
result: 4.97

Q: Query: pKd; subject: VLRLQSETSV [VANGL1, Q8TAA9]
A: 5.7

Q: Another binder: QSARYRDTEL [TJP2, Q9UDY2]
A: 4.69

Q: Another binder: TVASEKESVM [SLC1A5, Q15758]
A: 5.29
